For each record, write down the corresponding melting point.

GET /values?readout=melting point&item= CCCNC1=NS(=O)(=O)c2cc(C(F)(F)F)ccc2N1
241 to 243 °C

Request the reported melting point associated with COc1c(CN2CCNC2=C[N+](=O)[O-])cc(C)nc1[N+](=O)[O-]
177 to 181 °C

So what's the measured melting point for this one? COc1cccc2c1nc(C(F)F)n2-c1nc(Nc2ccc(N(C)S(C)(=O)=O)nc2)nc(N2CCOCC2)n1
250 to 253 °C

Need melting point, item CCCCCCC1(Br)CC(=CNc2ccccc2)OC1=O (stereo not given)
147 to 148 °C

What value of melting point has been recorded for this entry: NC1=NN(c2ccc(Cl)c(Cl)c2)CC1
182 to 184 °C

Need melting point of O=C(O)c1ccc(NCc2ccccc2)cc1 , thanks.
165 to 168 °C

Fill blank: measured melting point of the compound Cc1ccc(C(=O)NCc2ccc(Br)cc2F)c(OCC(=O)O)c1 is ____.
188 to 189 °C

Recorded melting point of COC(=O)c1ccc(NC(=N)Nc2nc(-c3ccccc3)cs2)cc1 , please.
189 to 191 °C

Which melting point value belongs to CCCCCCCCCCCCCCCCCCC1CNCCNCCNCCNCCN1 (stereo not given) ?
99 to 100 °C

# lookup: melting point of CC12CC(O)C3(F)C(CCC4=CC(=O)C=CC43C)C1CCC2S (stereo not given)
295 to 297 °C

Item CCCc1nc(C)n2nc(N)nc2c1Cc1ccc(-c2ccccc2C#N)cc1 has what recorded melting point?
150 °C

Suppose we examine the compound Cc1cc(-c2ccc(S(C)(=O)=O)cc2)n(-c2ccc(-c3ccco3)cc2)c1 ; what melting point value has been reported?
133 to 135 °C

Item under review: Oc1ncc(-c2cccc(F)c2)cn1 . Reported melting point?
259 to 261 °C

Please give the measured melting point for this compound: COC(=O)C=Cc1ccc(-c2ccc(OC(F)(F)F)cc2)cc1
98 to 100 °C

Requested field: melting point. Item: N#Cc1sc2ccccc2c1Cl
124 to 125 °C

State the recorded melting point for this entry: Cc1ccc(S(=O)(=O)NCCCn2c(CCO)nc3c(N)nc4ccccc4c32)cc1
231 to 232 °C

Could you share which melting point value was measured for CSC(Nc1ccc2c(c1)OCO2)=C(C#N)S(C)(=O)=O ?
168 to 170 °C

Suppose we examine the compound CC(NC(=O)c1sc2ccc(C(F)(F)F)cc2c1O)=C(c1ccccc1)c1ccccc1 ; what melting point value has been reported?
155 to 160 °C

I would be grateful if you could share the reported melting point for CS(=O)(=O)c1ccc(Oc2ccc(Br)cc2)nc1 .
125 to 126 °C

Need melting point, item O=c1cc(CBr)n(Cc2ccccc2)cc1OCCC12CC3CC(CC(C3)C1)C2
200 to 203 °C

Name the recorded melting point for CC(C)C[C@H](NC(=O)[C@H](Cc1ccccc1)NC(=O)CCC(=O)O)C(=O)O .
156 to 158 °C

Quick check: melting point of CCOc1ccc(C2=NN(C(=O)c3cccc(N)c3)CCC2)cc1OCC ?
162 to 163 °C

So what does the record say about melting point for CNC(=O)c1ccccc1Nc1nc(Nc2ccc3c(c2)COC[C@@H]2CCCN32)ncc1Cl ?
216 to 218 °C

Any idea what melting point was measured for CCOC(=O)C1=Cc2cc(S(C)=O)ccc2OC1C(F)(F)F (stereo not given) ?
92.2 to 98.4 °C

I am curious: what melting point value has been reported for N#CC=Cc1ccc(Cl)cc1C(=O)c1ccccc1 ?
89 to 91 °C

# melting point lookup, item CN(C)n1cc(C(=O)NCc2ccc(Cl)cc2)c(=O)c2cc(C#CCO)ccc21
210 to 214 °C

For the compound shown here, Cc1ccc(S(=O)(=O)NC[C@H](F)Cc2ccccc2)cc1 , give the reported melting point.
130 to 133 °C

Would you kindly share the measured melting point for O=C(Cc1ccncc1)c1ccc(F)cc1 ?
90 to 91 °C

Would you kindly share the measured melting point for COC(=O)C1(C)Oc2ccc(Cl)cc2C(C)(c2ccccc2)O1 (stereo not given) ?
134 °C

Consider the compound shown here: CCOC(=O)CCn1cnc2c(=O)[nH]cnc21 What is its recorded melting point?
197 to 200 °C

For the compound CCC(=O)OCOC(=O)C1=C(C)N(COC)C(C)=C(C(=O)O)[C@@H]1c1cccc([N+](=O)[O-])c1 , what melting point is on record?
54 to 56 °C

What melting point value was documented for this compound, CC(=O)NC[C@H]1CN(c2ccc(N3CCC(=C(C#N)CCO)CC3)c(F)c2)C(=O)O1 ?
192 to 194 °C

What does the record list as melting point for C1=CC2=NC=NC23CCNCC3N1 (stereo not given) ?
94 to 95 °C

Which melting point value belongs to CC(=O)NC[C@H]1CN(c2ccc(N3CCS(=O)CC3)cc2)C(=O)O1 ?
185 to 186 °C

Find the recorded melting point belonging to CCCn1c(COCC)nc2c(N)nc3ccc(OCCCCCCNC(=O)C(C)C)cc3c21 and report it.
136 to 138 °C

Look at this compound and give its reported melting point. N[C@@H]1CN2C(=O)N(c3cc(Cl)nc(Cl)c3)C(=O)[C@@]2(Cc2ccc(OC(F)(F)F)cc2)C1
151 °C

// returns reported melting point for input CCCCC(NC(=O)c1ccccc1)C(=O)CN(C)C(=O)N1CCCC1C(=O)O (stereo not given)
40 to 80 °C

What does the record list as melting point for Cc1ccc(Cn2cc(C(=O)C(=O)O)c3cc(-c4ccc(OC(F)(F)F)cc4)ccc32)cc1 ?
192 to 193 °C

I have this compound here, CC(=O)c1cccn1N1C(=O)c2ccccc2C1=O , and I need its recorded melting point.
204 to 205 °C

May I ask what melting point has been recorded for NC(=O)Nc1cccc(OCCCCl)c1 ?
141 to 143 °C
